# MEASURED ON: T1, glucagon receptor extracellular domain, wild type (recombinant, soluble) (Homo sapiens)
# T1 construct: glucagon receptor (GCGR), human, extracellular domain; A biotinylated form was used for phage selections; also called GCGR ECD; WT ECD
# T1 chain: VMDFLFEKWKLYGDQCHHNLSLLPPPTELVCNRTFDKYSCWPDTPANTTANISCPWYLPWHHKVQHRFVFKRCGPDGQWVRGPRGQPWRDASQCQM
# PROTOCOL NOTES: AlphaScreen or HTRF; competition: soluble WT or G40S GCGR ECD against WT GCGR ECD on donor beads for binding to mAb7, its variants (IgG) or mAb1 on acceptor beads
# CONDITION PARAMETERS: both partners purified

>  <BINDER>
mAb7.v11, humanized mAb7 with S54T (IgG) (antibody, V domains shown, mAb7.v1 heavy chain with S54T (CDR H2); that is the heavy chain of m13 (PDB 4LEX) with S28T put back; as the light chain of m13 (PDB 4LEX); IgG; also called S54T alone; source: recombinant antibody) VH: EVQLVESGPGLVKPSETLSLSCTVSGDSITSGFWNWIRQPPGKGLEWIGYIGFTGSTYYNPSLKSRVTISRDTSKNQYSLKLSSVTAADTAVYYCASVDNSAALDYWGQGTLVTVSS VL: DIVMTQTPLSLPVTPGQPASISCRSSQSLVHSNGNTYLHWYLQKPGQSPQLLIYKVSNRFSGVPDRFSGSGSGTDFTLKISRVEAEDVGVYYCSQSTHVPWTFGQGTKVEIK

>  <binding result>
binds

$$$$

// provenance: paper PMC3861664
